Target: GPR3 (Homo sapiens)
Construct: expressed in transfected cells; host or cells: CHO cells
Sequence (P46089 whole entry, species assumed): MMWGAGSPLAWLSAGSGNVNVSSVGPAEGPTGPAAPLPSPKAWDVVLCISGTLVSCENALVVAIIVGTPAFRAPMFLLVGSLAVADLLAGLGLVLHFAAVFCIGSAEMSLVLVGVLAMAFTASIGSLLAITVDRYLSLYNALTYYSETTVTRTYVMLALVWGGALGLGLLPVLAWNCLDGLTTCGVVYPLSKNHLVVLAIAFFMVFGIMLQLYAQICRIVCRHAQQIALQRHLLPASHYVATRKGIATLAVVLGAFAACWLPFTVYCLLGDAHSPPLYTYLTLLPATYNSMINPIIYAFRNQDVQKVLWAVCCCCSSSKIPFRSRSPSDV
Assay: GPR3 antagonist functional cAMP assay (LANCE Ultra cAMP TR-FRET, CHO cells stably expressing GPR3)
Format: cell-based
Conditions: procedure of Example 24
ENDPOINT LABEL: IC50

Give GPR3 (Homo sapiens) IC50 for CC(C)(O)COc1cc2nc(-c3cnn(CF)c3)c(N3CCN(Cc4ccc(F)cc4F)CC3)nc2cn1 [Compound 798] 1000 to 30000 nM

Hi! What's the reported IC50 for CCn1cc(-c2nc3cnc(CC(C)(C)O)cc3nc2N2CCC(Oc3ccc(F)cc3F)CC2)cn1 [Compound 706] on GPR3 (Homo sapiens)? 1000 to 30000 nM

State its IC50 on GPR3 (Homo sapiens): CC(=O)N1CCc2nc(N3CCC(Oc4ccc(F)cc4F)CC3)c(-c3cnn([C@H](C)C#N)c3)nc2C1 (single isomer, unassigned) [Compound 272] 1000 to 30000 nM

Kindly state the measured IC50 obtained for Cn1cc(-c2nc3cnc([C@@H](O)C(C)(C)F)cc3nc2N2CCC(Oc3ccc(F)cc3F)CC2)cn1 (single isomer, unassigned) [Compound 744] with GPR3 (Homo sapiens). 1000 to 30000 nM

Query for GPR3 (Homo sapiens): what IC50 does the record show for Cn1cc(-c2nc3cnc([C@@H](O)C(C)(C)O)cc3nc2N2CCC(=Cc3ccc(F)cc3F)CC2)cn1 (single isomer, unassigned) [Compound 719] ? 1000 to 30000 nM

Missing value: IC50, GPR3 (Homo sapiens), entry CC(C)(O)C(O)c1cc2nc(-c3cnn(CF)c3)c(N3CCC(=Cc4ccc(F)cc4F)CC3)nc2cn1 (single isomer, unassigned) [Compound 771] . Fill in? 100 to 1000 nM

What value of IC50 on GPR3 (Homo sapiens) does COCC(O)c1cc2nc(-c3cnn(C)c3)c(N3CCC(Oc4ccc(F)cc4F)CC3)nc2cn1 (stereo not shown) [Compound 644] have? 100 to 1000 nM

Request: IC50, test system GPR3 (Homo sapiens), entry CC(=O)N1CCc2nc(N3CCN(Cc4cc(F)cc(F)c4)CC3)c(-c3cnn(C)c3)nc2C1 [Compound 353] 1000 to 30000 nM

Entry COC[C@](C)(O)c1cc2nc(N3CCC(Oc4ccc(F)cc4F)CC3)c(-c3cnn(C)c3)nc2cn1 (single isomer, unassigned) [Compound 614] , system GPR3 (Homo sapiens): what IC50 was measured? 1000 to 30000 nM

What IC50 appears in the records for this compound with GPR3 (Homo sapiens)? CC(C)(O)[C@@H](O)c1cc2nc(N3CCC(=Cc4ccc(F)cc4F)CC3)c(-c3cnn(C4CC4)c3)nc2cn1 (single isomer, unassigned) [Compound 769] 1000 to 30000 nM

Look up IC50 with GPR3 (Homo sapiens) for this compound: CC(C)(O)[C@](C)(O)c1cc2nc(N3CCN(Cc4ccc(F)cc4F)CC3)c(-c3cnn(C4CC4)c3)nc2cn1 (single isomer, unassigned) [Compound 666] 1000 to 30000 nM

Form field - read-out: IC50; system: GPR3 (Homo sapiens); submitted item: CC(C)(O)C(=O)c1cc2nc(N3CCC(Oc4ccc(F)cc4F)CC3)c(-c3cnn(C(F)F)c3)nc2cn1 [Compound 616] 1000 to 30000 nM

Test system GPR3 (Homo sapiens); read-out IC50; what value for CCn1cc(-c2nc3cnc(N)cc3nc2N2CCC(Oc3ccc(F)cc3F)CC2)cn1 [Compound 294] ? 1000 to 30000 nM

# query: IC50 | item CC(C)(O)C(C)(O)c1cc2nc(-c3cnn(C(F)F)c3)c(N3CCN(Cc4ccccc4F)CC3)nc2cn1 (single isomer, unassigned) [Compound 708] | system: GPR3 (Homo sapiens) 1000 to 30000 nM

Give recorded IC50 with GPR3 (Homo sapiens) for the following compound: COc1ccc(C(=O)N2CCN(c3nc4c(nc3-c3cnn(C)c3)CN(C(C)=O)CC4)CC2)c(OC)c1 [Compound 287] ≥ 30000 nM

Any idea what IC50 came out for Cn1cc(-c2nc3cnc(N)cc3nc2N2CCC(Oc3ccc(F)cc3F)CC2)cn1 [Compound 277] on GPR3 (Homo sapiens)? 1000 to 30000 nM

Item CCn1cc(-c2nc3c(nc2N2CCC(Oc4ccc(F)cc4F)CC2)CCN(C(=O)C2CCCN2)C3)cn1 (stereo not shown) [Compound 291] with GPR3 (Homo sapiens) - IC50? 1000 to 30000 nM

Please provide the recorded IC50 for COc1ccc(CN2CCN(c3nc4c(nc3-c3cnn(C)c3)CN(C(C)=O)CC4)CC2)c(OC)c1 [Compound 322] , tested on GPR3 (Homo sapiens). 1000 to 30000 nM

Which IC50 is reported with GPR3 (Homo sapiens) for this entry: CC(=O)OC1CCN(c2nc3c(nc2-c2cnn(C)c2)CN(C(C)=O)CC3)C1 (stereo not shown) [Compound 315] ? 100 to 1000 nM
